- condition-notes: in n-butanol, 298.15 K
quantity-measured: solubility (mole fraction)

chem_smiles=Cc1nc2n(c(=O)c1CCN1CCC(c3noc4cc(F)ccc34)CC1)CCCC2 quantity_measured="solubility (mole fraction)" data_value=0.00347

---

- condition-notes: in ethanol, 308.15 K
quantity-measured: solubility (mole fraction)

chem_smiles=Cc1nc2n(c(=O)c1CCN1CCC(c3noc4cc(F)ccc34)CC1)CCCC2 data_value=0.0033

---

- condition-notes: in acetone, 288.15 K
quantity-measured: solubility (mole fraction)

chem_smiles=Cc1nc2n(c(=O)c1CCN1CCC(c3noc4cc(F)ccc34)CC1)CCCC2 quantity_measured="solubility (mole fraction)" data_value=0.00127

---

- condition-notes: in n-propanol, 303.15 K
quantity-measured: solubility (mole fraction)

chem_smiles=Cc1nc2n(c(=O)c1CCN1CCC(c3noc4cc(F)ccc34)CC1)CCCC2 quantity_measured="solubility (mole fraction)" data_value=0.00381

---

- condition-notes: in toluene, 293.15 K
quantity-measured: solubility (mole fraction)

chem_smiles=Cc1nc2n(c(=O)c1CCN1CCC(c3noc4cc(F)ccc34)CC1)CCCC2 quantity_measured="solubility (mole fraction)" data_value=0.00559

---

- condition-notes: in acetone, 303.15 K
quantity-measured: solubility (mole fraction)

chem_smiles=Cc1nc2n(c(=O)c1CCN1CCC(c3noc4cc(F)ccc34)CC1)CCCC2 quantity_measured="solubility (mole fraction)" data_value=0.00219

---

- condition-notes: in methanol, 313.15 K
quantity-measured: solubility (mole fraction)

chem_smiles=Cc1nc2n(c(=O)c1CCN1CCC(c3noc4cc(F)ccc34)CC1)CCCC2 quantity_measured="solubility (mole fraction)" data_value=0.0077

---

- condition-notes: in ethyl acetate, 303.15 K
quantity-measured: solubility (mole fraction)

chem_smiles=Cc1nc2n(c(=O)c1CCN1CCC(c3noc4cc(F)ccc34)CC1)CCCC2 quantity_measured="solubility (mole fraction)" data_value=0.00263

---

- condition-notes: in cumene, 283.15 K
quantity-measured: solubility (mole fraction)

chem_smiles=Cc1nc2n(c(=O)c1CCN1CCC(c3noc4cc(F)ccc34)CC1)CCCC2 data_value=0.00147

---

- condition-notes: in ethanol, 293.15 K
quantity-measured: solubility (mole fraction)

chem_smiles=Cc1nc2n(c(=O)c1CCN1CCC(c3noc4cc(F)ccc34)CC1)CCCC2 quantity_measured="solubility (mole fraction)" data_value=0.00153

---

- condition-notes: in n-butanol, 313.15 K
quantity-measured: solubility (mole fraction)

chem_smiles=Cc1nc2n(c(=O)c1CCN1CCC(c3noc4cc(F)ccc34)CC1)CCCC2 data_value=0.00753

---

- condition-notes: in isopropanol, 288.15 K
quantity-measured: solubility (mole fraction)

chem_smiles=Cc1nc2n(c(=O)c1CCN1CCC(c3noc4cc(F)ccc34)CC1)CCCC2 data_value=0.0006

---

- condition-notes: in n-butanol, 283.15 K
quantity-measured: solubility (mole fraction)

chem_smiles=Cc1nc2n(c(=O)c1CCN1CCC(c3noc4cc(F)ccc34)CC1)CCCC2 data_value=0.00173

---

- condition-notes: in toluene, 313.15 K
quantity-measured: solubility (mole fraction)

chem_smiles=Cc1nc2n(c(=O)c1CCN1CCC(c3noc4cc(F)ccc34)CC1)CCCC2 data_value=0.0117

---

- condition-notes: in n-propanol, 293.15 K
quantity-measured: solubility (mole fraction)

chem_smiles=Cc1nc2n(c(=O)c1CCN1CCC(c3noc4cc(F)ccc34)CC1)CCCC2 data_value=0.00238

---

- condition-notes: in acetone, 278.15 K
quantity-measured: solubility (mole fraction)

chem_smiles=Cc1nc2n(c(=O)c1CCN1CCC(c3noc4cc(F)ccc34)CC1)CCCC2 quantity_measured="solubility (mole fraction)" data_value=0.00085

---

- condition-notes: in isopropanol, 323.15 K
quantity-measured: solubility (mole fraction)

chem_smiles=Cc1nc2n(c(=O)c1CCN1CCC(c3noc4cc(F)ccc34)CC1)CCCC2 quantity_measured="solubility (mole fraction)" data_value=0.00447

---

- condition-notes: in cumene, 293.15 K
quantity-measured: solubility (mole fraction)

chem_smiles=Cc1nc2n(c(=O)c1CCN1CCC(c3noc4cc(F)ccc34)CC1)CCCC2 data_value=0.00219

---

- condition-notes: in ethyl acetate, 278.15 K
quantity-measured: solubility (mole fraction)

chem_smiles=Cc1nc2n(c(=O)c1CCN1CCC(c3noc4cc(F)ccc34)CC1)CCCC2 data_value=0.00116

---

- condition-notes: in isopropanol, 278.15 K
quantity-measured: solubility (mole fraction)

chem_smiles=Cc1nc2n(c(=O)c1CCN1CCC(c3noc4cc(F)ccc34)CC1)CCCC2 data_value=0.00036

---

- condition-notes: in n-propanol, 318.15 K
quantity-measured: solubility (mole fraction)

chem_smiles=Cc1nc2n(c(=O)c1CCN1CCC(c3noc4cc(F)ccc34)CC1)CCCC2 data_value=0.00839

---

- condition-notes: in n-butanol, 323.15 K
quantity-measured: solubility (mole fraction)

chem_smiles=Cc1nc2n(c(=O)c1CCN1CCC(c3noc4cc(F)ccc34)CC1)CCCC2 quantity_measured="solubility (mole fraction)" data_value=0.0124

---

- condition-notes: in ethanol, 323.15 K
quantity-measured: solubility (mole fraction)

chem_smiles=Cc1nc2n(c(=O)c1CCN1CCC(c3noc4cc(F)ccc34)CC1)CCCC2 data_value=0.00677

---

- condition-notes: in ethyl acetate, 293.15 K
quantity-measured: solubility (mole fraction)

chem_smiles=Cc1nc2n(c(=O)c1CCN1CCC(c3noc4cc(F)ccc34)CC1)CCCC2 data_value=0.00185

---

- condition-notes: in cumene, 308.15 K
quantity-measured: solubility (mole fraction)

chem_smiles=Cc1nc2n(c(=O)c1CCN1CCC(c3noc4cc(F)ccc34)CC1)CCCC2 quantity_measured="solubility (mole fraction)" data_value=0.00376

---

- condition-notes: in acetone, 323.15 K
quantity-measured: solubility (mole fraction)

chem_smiles=Cc1nc2n(c(=O)c1CCN1CCC(c3noc4cc(F)ccc34)CC1)CCCC2 quantity_measured="solubility (mole fraction)" data_value=0.00507

---

- condition-notes: in n-butanol, 303.15 K
quantity-measured: solubility (mole fraction)

chem_smiles=Cc1nc2n(c(=O)c1CCN1CCC(c3noc4cc(F)ccc34)CC1)CCCC2 data_value=0.00443

---

- condition-notes: in methanol, 278.15 K
quantity-measured: solubility (mole fraction)

chem_smiles=Cc1nc2n(c(=O)c1CCN1CCC(c3noc4cc(F)ccc34)CC1)CCCC2 quantity_measured="solubility (mole fraction)" data_value=0.00202

---

- condition-notes: in cumene, 278.15 K
quantity-measured: solubility (mole fraction)

chem_smiles=Cc1nc2n(c(=O)c1CCN1CCC(c3noc4cc(F)ccc34)CC1)CCCC2 data_value=0.00122

---

- condition-notes: in cumene, 288.15 K
quantity-measured: solubility (mole fraction)

chem_smiles=Cc1nc2n(c(=O)c1CCN1CCC(c3noc4cc(F)ccc34)CC1)CCCC2 data_value=0.00207

---

- condition-notes: in methanol, 288.15 K
quantity-measured: solubility (mole fraction)

chem_smiles=Cc1nc2n(c(=O)c1CCN1CCC(c3noc4cc(F)ccc34)CC1)CCCC2 quantity_measured="solubility (mole fraction)" data_value=0.00272

---

- condition-notes: in ethanol, 313.15 K
quantity-measured: solubility (mole fraction)

chem_smiles=Cc1nc2n(c(=O)c1CCN1CCC(c3noc4cc(F)ccc34)CC1)CCCC2 data_value=0.00415

---

- condition-notes: in ethyl acetate, 288.15 K
quantity-measured: solubility (mole fraction)

chem_smiles=Cc1nc2n(c(=O)c1CCN1CCC(c3noc4cc(F)ccc34)CC1)CCCC2 quantity_measured="solubility (mole fraction)" data_value=0.00167

---

- condition-notes: in isopropanol, 303.15 K
quantity-measured: solubility (mole fraction)

chem_smiles=Cc1nc2n(c(=O)c1CCN1CCC(c3noc4cc(F)ccc34)CC1)CCCC2 data_value=0.00136

---

- condition-notes: in toluene, 288.15 K
quantity-measured: solubility (mole fraction)

chem_smiles=Cc1nc2n(c(=O)c1CCN1CCC(c3noc4cc(F)ccc34)CC1)CCCC2 data_value=0.00521

---

- condition-notes: in toluene, 318.15 K
quantity-measured: solubility (mole fraction)

chem_smiles=Cc1nc2n(c(=O)c1CCN1CCC(c3noc4cc(F)ccc34)CC1)CCCC2 data_value=0.014

---

- condition-notes: in ethanol, 318.15 K
quantity-measured: solubility (mole fraction)

chem_smiles=Cc1nc2n(c(=O)c1CCN1CCC(c3noc4cc(F)ccc34)CC1)CCCC2 data_value=0.0051

---

- condition-notes: in methanol, 308.15 K
quantity-measured: solubility (mole fraction)

chem_smiles=Cc1nc2n(c(=O)c1CCN1CCC(c3noc4cc(F)ccc34)CC1)CCCC2 data_value=0.00615

---

- condition-notes: in ethyl acetate, 323.15 K
quantity-measured: solubility (mole fraction)

chem_smiles=Cc1nc2n(c(=O)c1CCN1CCC(c3noc4cc(F)ccc34)CC1)CCCC2 quantity_measured="solubility (mole fraction)" data_value=0.0058

---

- condition-notes: in cumene, 318.15 K
quantity-measured: solubility (mole fraction)

chem_smiles=Cc1nc2n(c(=O)c1CCN1CCC(c3noc4cc(F)ccc34)CC1)CCCC2 quantity_measured="solubility (mole fraction)" data_value=0.00552
